assay: Compound was tested for inhibition of tubulin polymerisation
IC50 less than 10 µM is True; IC50 greater than or equal to 10 µM is False.

IC50 strictly < 10 µM for this compound? CN1CCN(CCOC(=O)N2CCc3cc(S(=O)(=O)N4C[C@H](c5ccccc5)NC4=O)ccc32)CC1
False

# check: IC50 < 10 µM for Nc1ccc(C(=O)Nc2ccc(S(=O)(=O)N3C[C@H](c4ccccc4)NC3=O)cc2Cl)cc1
True

Dear colleague, could you confirm whether IC50 of O=C(CNc1ccccc1)N1CCc2cc(S(=O)(=O)N3C[C@H](c4ccccc4)NC3=O)ccc21 falls below 10 µM? Thanks.
True

Does the reported IC50 of the following compound sit strictly below 10 µM? Nc1ccc(C(=O)N2CCc3cc(S(=O)(=O)N4CC(c5cccs5)NC4=O)ccc32)cc1 (stereo not given)
False

Consider the compound O=C(c1cc(Cl)nc(Cl)c1)N1CCc2cc(S(=O)(=O)N3C[C@H](c4ccccc4)NC3=O)ccc21 . Is its IC50 strictly less than 10 µM?
False

----------
Overview of recorded GI50 for various compounds
tested on: HCT-116; test: Compound was tested for growth inhibition of human colon carcinoma HCT116 cell line; type: functional
Number in nM, nothing else.

Worked cases, GI50 given:
CCOC(=O)Nc1ccc(S(=O)(=O)N2C[C@H](c3ccccc3)NC2=O)cc1C    70
O=C(c1ccco1)N1CCc2cc(S(=O)(=O)N3CC(c4cccs4)NC3=O)ccc21 (stereo not drawn)    70

O=C(c1cc(Cl)nc(Cl)c1)N1CCc2cc(S(=O)(=O)N3C[C@H](c4ccccc4)NC3=O)ccc21 yielded GI50 of 380

For reference, reported GI50 for O=C(Cc1cccs1)N1CCc2cc(S(=O)(=O)N3C[C@H](c4ccccc4)NC3=O)ccc21 stands at 6

Lab note: O=C(NCCN1CCOCC1)N1CCc2cc(S(=O)(=O)N3C[C@H](c4ccccc4)NC3=O)ccc21 gave GI50 of 1200

// field: GI50; key: Nc1ccc(C(=O)Nc2ccc(S(=O)(=O)N3C[C@H](c4ccccc4)NC3=O)cc2Cl)cc1 ; value = 60

The recorded GI50 for entry Nc1ccc(C(=O)N2CCc3cc(S(=O)(=O)N4C[C@H](c5ccccc5)NC4=O)ccc32)cc1 equals 10

Sample CCOC(=O)N1CCc2cc(S(=O)(=O)N3C[C@H](c4ccccc4)NC3=O)ccc21 ; GI50 observed: 80

Sample Nc1ccc(C(=O)N2CCc3cc(S(=O)(=O)N4CC(c5ccc(F)cc5)NC4=O)ccc32)cc1 (stereo not drawn) ; GI50 observed: 1100

Query O=C(CNc1ccccc1)N1CCc2cc(S(=O)(=O)N3C[C@H](c4ccccc4)NC3=O)ccc21 yields GI50 of 50

Kindly note the recorded GI50 for CC[C@]1(O)C[C@H]2CN(CCc3c([nH]c4ccccc34)[C@@](C(=O)OC)(c3cc4c(cc3OC)N(C=O)[C@H]3[C@@](O)(C(=O)OC)[C@H](OC(C)=O)[C@]5(CC)C=CCN6CC[C@]43[C@@H]65)C2)C1 , which is 1

For this compound ( O=C(c1ccncc1)N1CCc2cc(S(=O)(=O)N3C[C@H](c4ccccc4)NC3=O)ccc21 ), measured GI50 is 80

Record O=C(NC1CCCCC1)N1CCc2cc(S(=O)(=O)N3C[C@H](c4ccccc4)NC3=O)ccc21 . Reported GI50: 50
